# TEST_TARGET: UniProt O14744
# Sequence (O14744 whole entry): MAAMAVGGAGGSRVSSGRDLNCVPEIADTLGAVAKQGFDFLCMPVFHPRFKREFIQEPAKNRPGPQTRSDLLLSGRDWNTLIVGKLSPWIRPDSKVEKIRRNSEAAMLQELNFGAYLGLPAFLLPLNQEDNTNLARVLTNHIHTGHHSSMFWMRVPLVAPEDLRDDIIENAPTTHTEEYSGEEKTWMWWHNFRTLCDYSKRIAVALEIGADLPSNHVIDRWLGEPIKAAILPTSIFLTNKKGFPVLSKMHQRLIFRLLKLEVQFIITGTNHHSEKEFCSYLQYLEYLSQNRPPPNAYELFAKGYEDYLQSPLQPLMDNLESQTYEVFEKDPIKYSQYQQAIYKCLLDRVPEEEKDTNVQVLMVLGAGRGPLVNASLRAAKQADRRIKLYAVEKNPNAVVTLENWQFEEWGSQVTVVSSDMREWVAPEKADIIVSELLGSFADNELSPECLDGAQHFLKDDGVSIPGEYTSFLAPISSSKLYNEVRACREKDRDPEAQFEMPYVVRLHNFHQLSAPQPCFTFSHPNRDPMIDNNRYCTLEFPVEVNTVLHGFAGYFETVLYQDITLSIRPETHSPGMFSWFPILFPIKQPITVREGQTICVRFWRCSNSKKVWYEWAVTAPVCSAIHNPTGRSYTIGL
# PROTOCOL_DETAILS: Inhibition of PRMT5 in human Z138 cells assessed as decrease in di-methyl arginine levels after 96 hrs by Western blot method
Overview of recorded EC50 for various molecules

molecule="CN(C)S(=O)(=O)c1ccccc1OCC(=O)NCC(O)CN1CCc2ccccc2C1 (stereo not given)" test_target="UniProt O14744" result_value="< 100 nM"
molecule="Cn1cnc2ccc(-c3ccnc(NCC(O)CN4CCc5ccccc5C4)c3)cc21 (stereo not given)" test_target="UniProt O14744" result_value="101 to 1000 nM"
molecule="O=C1COc2ccc(-c3cccc(OCC(O)CN4CCc5ccccc5C4)c3)cc2N1 (stereo not given)" test_target="UniProt O14744" result_value="1000 to 10000 nM"
molecule=C[C@@H](Oc1cccc2cccnc12)C(=O)NC[C@H](O)CN1CCc2ccccc2C1 test_target="UniProt O14744" result_value="< 100 nM"
molecule="Cn1ccc(C(=O)Nc2cccc(OCC(O)CN3CCc4ccccc4C3)c2)n1 (stereo not given)" test_target="UniProt O14744" result_value="1000 to 10000 nM"
molecule="CN(C)c1ncccc1OCC(=O)NCC(O)CN1CCc2ccccc2C1 (stereo not given)" test_target="UniProt O14744" result_value="1000 to 10000 nM"
molecule=O=c1cc(-c2ccccc2)ccn1C[C@@H](O)CN1CCc2ccccc2C1 test_target="UniProt O14744" result_value="> 50000 nM"
molecule="O=C(c1ccc(Cn2nccc2-c2ccc(OCC(O)CN3CCc4ccccc4C3)cc2)cc1)N1CCCC1 (stereo not given)" test_target="UniProt O14744" result_value="1000 to 10000 nM"

Write down the reported EC50 (system: UniProt O14744) of Cn1ncc2cc(-c3cccc(OCC(O)CN4CCc5ccccc5C4)c3)ccc21 (stereo not given)
1000 to 10000 nM

Write down the reported EC50 (system: UniProt O14744) of Cn1ccc2cnc(-c3cccc(OCC(O)CN4CCc5ccccc5C4)c3)nc21 (stereo not given)
101 to 1000 nM

The reported numbers originate from ChEMBL document CHEMBL3879915.
